Below, each entry is listed alongside its reported pIC50.
# TARGET_ENTITY: CCR2 (Homo sapiens, UniProt P41597)
# PROCEDURE_TEXT: MCP-1 Receptor Binding Assay in THP-1 Cells
# DETAILS: 0.5 nM 125I labeled MCP-1, 2 hours at 30° C., less polar isomer tested where stated, read-out: Inhibition of MCP-1 Binding IC50, CCR2 Binding
Expect pIC50 as a plain number equal to -log10 of the molar concentration.

Consider the worked cases shown below.
{"columns": ["COMPOUND", "TARGET_ENTITY", "pIC50"],
 "data": [
  ["CN(C)c1cccc(C2(O)CCC(N3CC(NC(=O)CNc4nn(C)c5ccc(C(F)(F)F)cc45)C3)CC2)c1 (stereo not drawn)", "CCR2 (Homo sapiens, UniProt P41597)", 8.32],
  ["COc1cccc(C2(O)CCC(N3CC(NC(=O)CNc4nn(Cc5ccccc5)c5ccc(C(F)(F)F)cc45)C3)CC2)n1 (stereo not drawn)", "CCR2 (Homo sapiens, UniProt P41597)", 6.57],
  ["CCn1nc(NCC(=O)NC2CN(C3CCC(O)(c4cnc(C)s4)CC3)C2)c2cc(C(F)(F)F)ccc21 (stereo not drawn)", "CCR2 (Homo sapiens, UniProt P41597)", 8.07],
  ["Cc1ncc(C2(O)CCC(N3CC(NC(=O)CNc4nn(C)c5ccc(C(F)(F)F)cc45)C3)CC2)s1 (stereo not drawn)", "CCR2 (Homo sapiens, UniProt P41597)", 7.72],
  ["Cn1nc(NCC(=O)NC2CN(C3CCC(NC(=O)OC(C)(C)C)CC3)C2)c2cc(C(F)(F)F)ccc21 (stereo not drawn)", "CCR2 (Homo sapiens, UniProt P41597)", 7.12]
]}

Qu. Query (compound): CC(C)C1CCC(N2CC(NC(=O)CNc3nn(C)c4ccc(OC(F)(F)F)cc34)C2)CC1 (stereo not drawn) ; field requested: pIC50
Ans. 6.47

Qu. Query (compound): Cc1cnc(C2(O)CCC(N3CC(NC(=O)CNc4nn(CCO)c5ccc(C(F)(F)F)cc45)C3)CC2)s1 (stereo not drawn) ; field requested: pIC50
Ans. 7.51

Qu. Query (compound): Cn1nc(NCC(=O)NC2CN(C3CCC(O)(c4nccs4)CC3)C2)c2cc(C(F)C(F)(F)F)ccc21 (stereo not drawn) ; field requested: pIC50
Ans. 7.43

Qu. Query (compound): O=C(CNc1n[nH]c2ccc(C(F)(F)F)cc12)NC1CN(C2CCC(O)(c3cccnc3)CC2)C1 (stereo not drawn) ; field requested: pIC50
Ans. 7.51

Qu. Query (compound): Cn1ccnc1C1(O)CCC(N2CC(NC(=O)CNc3nn(C)c4ccc(C(F)(F)F)cc34)C2)CC1 (stereo not drawn) ; field requested: pIC50
Ans. 5.85

----------
Below, each entry is listed alongside its reported pIC50.
# TARGET_ENTITY: CCR2 (Homo sapiens, UniProt P41597)
# PROCEDURE_TEXT: MCP-1 Receptor Binding Assay in THP-1 Cells
# DETAILS: 0.5 nM 125I labeled MCP-1, 2 hours at 30° C., less polar isomer tested where stated, read-out: Inhibition of MCP-1 Binding IC50, CCR2 Binding
Expect pIC50 as a plain number equal to -log10 of the molar concentration.

{"columns": ["COMPOUND", "TARGET_ENTITY", "RECORDED_NUMBER"],
 "data": [
  ["COc1ccc(C2(O)CCC(N3CC(NC(=O)CNc4n[nH]c5ccc(C(F)(F)F)cc45)C3)CC2)cn1 (stereo not drawn) [Example 44]", "CCR2 (Homo sapiens, UniProt P41597)", 7.80]
]}

Qu. Query (compound): CCOC(=O)C1CCC(N2CC(NC(=O)CNc3nn(Cc4ccccc4)c4ccc(C(F)(F)F)cc34)C2)CC1 (stereo not drawn) [Example 97] ; field requested: pIC50
Ans. 6.77

Qu. Query (compound): O=C(CNc1noc2ccc(C(F)(F)F)cc12)NC1CN(C2CCC(C3CCCCC3)CC2)C1 (stereo not drawn) [Example 5] ; field requested: pIC50
Ans. 6.48

----------
# TARGET_ENTITY: CCR2 (Homo sapiens, UniProt P41597)
# PROCEDURE_TEXT: MCP-1 Receptor Binding Assay in THP-1 Cells
# DETAILS: 0.5 nM 125I labeled MCP-1, 2 hours at 30° C., less polar isomer tested where stated, read-out: Inhibition of MCP-1 Binding IC50, CCR2 Binding
The label is true (1) for IC50 below 200 nM and false (0) for IC50 equal to or exceeding 200 nM.

{"columns": ["COMPOUND", "GROUP_LABEL"],
 "data": [
  ["CCOC(=O)C1CCC(N2CC(NC(=O)CNc3nn(C)c4ccc(C(F)(F)F)cc34)C2)CC1 (stereo not shown)", "true (1)"],
  ["O=C(CNc1n[nH]c2ccc(C(F)(F)F)cc12)NC1CN(C2CCC(n3ccccc3=O)CC2)C1 (stereo not shown)", "true (1)"],
  ["CCC1CCC(N2CC(NC(=O)CNc3noc4ccc(C(F)(F)F)cc34)C2)CC1 (stereo not shown)", "false (0)"],
  ["CC(C)C1CCC(N2CC(NC(=O)CNc3nn(Cc4ccccc4)c4ccc(C(F)(F)F)cc34)C2)CC1 (stereo not shown)", "false (0)"],
  ["Cn1nc(NCC(=O)NC2CN(C3CCC(C(N)=O)CC3)C2)c2cc(C(F)(F)F)ccc21 (stereo not shown)", "false (0)"],
  ["COC(F)(c1ccc2c(c1)c(NCC(=O)NC1CN(C3CCC(O)(c4ccc(C)nc4)CC3)C1)nn2C)C(F)(F)F (stereo not shown)", "true (1)"]
]}

As a next step, examine the compound that follows.
Qu. Does the reported IC50 of CCc1ncc(C2(O)CCC(N3CC(NC(=O)CNc4nn(CC(F)(F)F)c5ccc(C(F)(F)F)cc45)C3)CC2)s1 (stereo not shown) stay below 200 nM?
Ans. true (1)

----------
# TARGET_ENTITY: CCR2 (Homo sapiens, UniProt P41597)
# PROCEDURE_TEXT: MCP-1 Receptor Binding Assay in THP-1 Cells
# DETAILS: 0.5 nM 125I labeled MCP-1, 2 hours at 30° C., less polar isomer tested where stated, read-out: Inhibition of MCP-1 Binding IC50, CCR2 Binding
Below, each entry is listed alongside its reported log10 IC50.
On a log10 scale: recorded IC50, unit nM.

{"columns": ["COMPOUND", "TARGET_ENTITY", "log10 IC50"],
 "data": [
  ["Cn1nc(NCC(=O)NC2CN(C3CCC(O)(c4nccs4)CC3)C2)c2cc(C(F)(F)F)ccc21 (centres unmarked) [Example 22]", "CCR2 (Homo sapiens, UniProt P41597)", 1.11],
  ["CC(C)C1CCC(N2CC(NC(=O)CNc3noc4ccc(OC(F)(F)F)cc34)C2)CC1 (centres unmarked) [Example 17]", "CCR2 (Homo sapiens, UniProt P41597)", 2.88],
  ["Cn1nc(NCC(=O)NC2CN(C3CCC(O)(c4cncs4)CC3)C2)c2cc(C(F)C(F)(F)F)ccc21 (centres unmarked) [Example 65]", "CCR2 (Homo sapiens, UniProt P41597)", 2.00]
]}

Qu. Query (compound): CC(C)NC(=O)n1nc(NCC(=O)NC2CN(C3CCC(C(C)C)CC3)C2)c2cc(C(F)(F)F)ccc21 (centres unmarked) [Example 92] ; field requested: log10 IC50
Ans. 3.20

Qu. Query (compound): C=CCn1nc(NCC(=O)NC2CN(C3CCC(C(=O)OCC)CC3)C2)c2cc(C(F)(F)F)ccc21 (centres unmarked) [Example 94] ; field requested: log10 IC50
Ans. 1.72

Qu. Query (compound): CC(C)c1ncc(C2(O)CCC(N3CC(NC(=O)CNc4nn(C)c5ccc(C(F)(F)F)cc45)C3)CC2)s1 (centres unmarked) [Example 24] ; field requested: log10 IC50
Ans. 0.72

Qu. Query (compound): CCCC1CCC(N2CC(NC(=O)CNc3noc4ccc(C(F)(F)F)cc34)C2)CC1 (centres unmarked) [Example 14] ; field requested: log10 IC50
Ans. 2.56

----------
# TARGET_ENTITY: CCR2 (Homo sapiens)
# Sequence (P41597 1-360 isoform P41597-2): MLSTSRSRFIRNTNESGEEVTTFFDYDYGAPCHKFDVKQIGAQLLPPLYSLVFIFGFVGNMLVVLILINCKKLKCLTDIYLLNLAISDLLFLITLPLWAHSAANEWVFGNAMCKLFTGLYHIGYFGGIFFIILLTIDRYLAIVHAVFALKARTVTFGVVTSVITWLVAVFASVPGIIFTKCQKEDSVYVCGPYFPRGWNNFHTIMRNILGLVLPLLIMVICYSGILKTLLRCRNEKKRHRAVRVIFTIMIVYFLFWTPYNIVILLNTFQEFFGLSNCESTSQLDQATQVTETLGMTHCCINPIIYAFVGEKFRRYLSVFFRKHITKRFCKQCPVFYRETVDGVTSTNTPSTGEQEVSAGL
# PROCEDURE_TEXT: MCP-1 Receptor Binding Assay in THP-1 Cells
# DETAILS: 0.5 nM 125I labeled MCP-1, 2 hours at 30° C., less polar isomer tested where stated, read-out: Inhibition of MCP-1 Binding IC50, CCR2 Binding
pIC50: −log10 of the molar value.
// classify(record): look up pIC50 in ranges low = under 6, middle = from 6 up to 7, high = 7 and over

Worked examples, 5 compounds total:
{"columns": ["COMPOUND", "GROUP_LABEL"],
 "data": [
  ["CCn1nc(NCC(=O)NC2CN(C3CCC(O)(c4nccs4)CC3)C2)c2cc(C(F)(F)F)ccc21 (stereo not drawn)", "high"],
  ["Cn1nc(NCC(=O)NC2CN(C3CCC(O)(c4cncs4)CC3)C2)c2cc(OC(F)(F)F)ccc21 (stereo not drawn)", "high"],
  ["O=C(CNc1nn(CCO)c2ccc(C(F)(F)F)cc12)NC1CN(C2CCC(O)(c3cncs3)CC2)C1 (stereo not drawn)", "high"],
  ["O=C(CNc1noc2ccc(C(F)(F)F)cc12)NC1CN(C2CCC(O)(c3cncs3)CC2)C1 (stereo not drawn)", "high"],
  ["O=C(CNc1noc2ccc(C(F)(F)F)cc12)NC1CN(C2CCC(c3ccc4c(c3)OCO4)CC2)C1 (stereo not drawn)", "high"]
]}

Qu. Category lookup for the compound CCOC(=O)C1CCC(N2CC(NC(=O)CNc3nn(C)c4ccc(C(O)C(F)(F)F)cc34)C2)CC1 (stereo not drawn)
Ans. low

Qu. Category lookup for the compound NC(=O)n1nc(NCC(=O)NC2CN(C3CCC(O)CC3)C2)c2cc(C(F)(F)F)ccc21 (stereo not drawn)
Ans. middle
